test system: 786-0 complex spheroid viability; assay: Anticancer human tumor 786-0 cell line growth inhibition; details: second compound 3.16 µM; first compound 0.1 µM; hits give low values;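 note: spheroids exposed to agents for seven days before readout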
Labelling field: enter 1 (yes) if recorded viability, T/C is less than 40%. Enter 0 (no) if it equals or exceeds that cut-off.

• CC[C@@]1(O)C(=O)OCc2c1cc1n(c2=O)Cc2cc3c(CN(C)C)c(O)ccc3nc2-1 + NC1CC1c1ccc(-c2cccc(O)c2)cc1 = 1 (yes)
• O=C(C=Cn1cnc(-c2cc(C(F)(F)F)cc(C(F)(F)F)c2)n1)NNc1cnccn1 + NC1CCC(NC2CC2c2ccccc2)CC1 = 1 (yes)
• COc1ccc([C@@H](O)c2cc(-c3ncnc4cc(N5CCOCC5)ccc34)c(F)cc2Cl)nn1 + NC1CC1c1ccc(-c2cccc(O)c2)cc1 = 0 (no)
• CC(C)CC(NC(=O)CNC(=O)c1cc(Cl)ccc1Cl)B1OC(=O)CC(CC(=O)O)(C(=O)O)O1 (centres undefined) + NC1CC1c1ccc(-c2cccc(O)c2)cc1 = 1 (yes)
• Cn1ncnc1C1c2n[nH]c(=O)c3cc(F)cc(c23)NC1c1ccc(F)cc1 (centres undefined) + NC1CC1c1ccc(-c2cccc(O)c2)cc1 = 0 (no)
• CC1COCCN1c1cc(-c2ccnn2C)c2ccnc(-c3ccn[nH]3)c2n1 (centres undefined) + NC1CCC(NC2CC2c2ccccc2)CC1 = 1 (yes)
• CC1COCCN1c1cc(C2(S(C)(=N)=O)CC2)nc(-c2ccnc3[nH]ccc23)n1 (centres undefined) + NC1CCC(NC2CC2c2ccccc2)CC1 = 0 (no)
• COc1ccc([C@@H](O)c2cc(-c3ncnc4cc(N5CCOCC5)ccc34)c(F)cc2Cl)nn1 + NC1CCC(NC2CC2c2ccccc2)CC1 = 0 (no)
• CC[C@@]1(O)C(=O)OCc2c1cc1n(c2=O)Cc2cc3c(CN(C)C)c(O)ccc3nc2-1 + NC1CCC(NC2CC2c2ccccc2)CC1 = 1 (yes)
• CC1(C)CCC(CN2CCN(c3ccc(C(=O)NS(=O)(=O)c4ccc(NCC5CCOCC5)c([N+](=O)[O-])c4)c(Oc4cnc5[nH]ccc5c4)c3)CC2)=C(c2ccc(Cl)cc2)C1 + NC1CCC(NC2CC2c2ccccc2)CC1 = 0 (no)
• CC(C)c1c(-c2ccccc2)nc2c(C#N)c[nH]n2c1=O + NC1CCC(NC2CC2c2ccccc2)CC1 = 0 (no)
• CC(C)CC(NC(=O)CNC(=O)c1cc(Cl)ccc1Cl)B1OC(=O)CC(CC(=O)O)(C(=O)O)O1 (centres undefined) + NC1CCC(NC2CC2c2ccccc2)CC1 = 1 (yes)
• O=C(c1cc(Cc2n[nH]c(=O)c3ccccc23)ccc1F)N1CCN(C(=O)C2CC2)CC1 + NC1CCC(NC2CC2c2ccccc2)CC1 = 0 (no)
• O=C(C=Cn1cnc(-c2cc(C(F)(F)F)cc(C(F)(F)F)c2)n1)NNc1cnccn1 + NC1CC1c1ccc(-c2cccc(O)c2)cc1 = 1 (yes)
